Tested on: BT-549
Experiment: NCI tumour cell line growth inhibition, 48 h
Activity calls are given as the source filed them. Cut-off read from the data, not from the text of the source: active = GI50 up to about 1.1 µM and inactive = higher.
property_measured: GI50

Item: `Cc1ccc2c(=O)c(C(=O)N(CCO)CCO)c[nH]c2n1` Test system: BT-549 Read-out: GI50 Value: ?
> 100 µM (inactive)

Here is the next compound: C/C=C\C(CC(=O)NCCc1c[nH]c2ccccc12)CC(=O)OC (stereo not given)
> 100 µM (inactive)

Now try `COc1ccc(-c2cc(-c3ccccc3)c3c(n2)-c2ccccc2NC(=O)C3)cc1` .
> 100 µM (inactive)

// same read-out, input: `Clc1ccc(CCN2CCN(CCCc3ccccc3)CC2)cc1Cl`
15.8 µM (inactive)

Note, next up: COC(=O)C(=O)C(C(=O)C(=O)Nc1ccccc1C(C)=O)c1nc2ccc(C(=O)c3ccccc3)cc2nc1O (stereo not given)
> 100 µM (inactive)
